Task for the reader: assign each of the following molecules its reported chromatographic logD.
- assay: Log D determination by high pressure liquid chromatography
- Type: physicochemical
- assay.context: hplc ods, mobile phase MeOH:H2O, pH 7.4, read-out: (Log D) (Lipophilicity)
Give bare numbers.

Observe how each entry below is paired with its result.
[
  {
    "molecule": "CSc1ccc(-c2nc3n(c2-c2ccncc2)CCC3)cc1 [Compound 1]",
    "measured": 2.68
  },
  {
    "molecule": "C[S+]([O-])c1ccc(-c2nc3n(c2-c2ccncc2)CCC3)cc1 (centres unmarked) [Compound 2]",
    "measured": 0.85
  },
  {
    "molecule": "COc1ccc(-c2nc3n(c2-c2ccncc2)CCC3)cc1 [Compound C]",
    "measured": 2.14
  }
]

Give chromatographic logD for each of the items listed below.
1. Fc1ccc(-c2nc3n(c2-c2ccncc2)CCS3)cc1 [Compound A]
2. [O-][S+]1CCn2c1nc(-c1ccc(F)cc1)c2-c1ccncc1 (centres unmarked) [B, reference compound]

2.19
1.2

FYI, the data here is from patent EP0306300B1.
